Reference source for all entries: ChEMBL document CHEMBL5120815

System: MCF7
Protocol notes: Cytotoxicity against human MCF7 cells harbouring wild type BRCA1/2 assessed as inhibition of cell growth incubated for 48 hrs by MTT assay
Format: functional, cell-based
Test parameters: MCF7, 48 h
Reported IC50 values follow for various compounds
Measurement label: IC50 (µM)

[
  {
    "Smiles string": "CN(C)CCN(C)c1ncc2c(n1)CCN(C(=O)c1cc(Cc3n[nH]c(=O)c4ccccc34)ccc1F)C2",
    "Measurement label": "IC50",
    "Endpoint value": 122
  },
  {
    "Smiles string": "CCN(CC)c1ncc2c(n1)CCN(C(=O)c1cc(Cc3n[nH]c(=O)c4ccccc34)ccc1F)C2",
    "Measurement label": "IC50",
    "Endpoint value": 55.8
  },
  {
    "Smiles string": "CCCN(CCC)c1ncc2c(n1)CCN(C(=O)c1cc(Cc3n[nH]c(=O)c4ccccc34)ccc1F)C2",
    "Measurement label": "IC50",
    "Endpoint value": 126
  },
  {
    "Smiles string": "O=C(c1cc(Cc2n[nH]c(=O)c3ccccc23)ccc1F)N1CCc2nc(N3CCCCC3)ncc2C1",
    "Measurement label": "IC50",
    "Endpoint value": 89.8
  }
]
